- Method Summary: NCI Yeast Anticancer Drug Screen. Data for the cln2 rad14 strain (AID 165);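 further: 0% = growth equal to vehicle treated cultures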
- Reported Conditions: S. cerevisiae cln2 rad14 strain, at 50.0 µM, active compounds read high
This is part of a sample that, as a whole, favours compounds with a hit. Of some 79,000 tested, about 15% had one in any assay.
Readout Label: growth inhibition (%)
Kindly answer with a numeric value in %, unit omitted.

Previously resolved entries follow.
> print(dat)
                                   compound  value.observed
1  CC1=C(O)/C(=C/C(C)CCC/C(C)=C/C=C/C(C)CCCc2ccoc2)OC1=O (centres undefined)            23.8
2  CCOc1cc(/C=C2/C=C(c3ccc(OC)cc3)OC2=O)ccc1O           -19.1
3  O=c1oc2c3ccc4ccccc4c3n(Cc3nc4ccccc4[nH]3)c2c2ccccc12            28.6
4                  COC(=O)N/N=C/c1cccc(C)n1             0.7
5  Cc1cccc(Cl)c1NC(=O)Nc1ccc(Cl)cc1C(=O)c1ccccc1             4.2
6  CC1(C=O)C(=O)CCC2(C)C3CC(=O)OC3CCC12 (centres undefined)           -20.3

Ask | Name the recorded growth inhibition of the item Cc1ccc(S(=O)(=O)OCC23CCC(C4CC42)C2CC23)cc1 (centres undefined) in your answer.
Reply | 4.2

Ask | Output growth inhibition of CCCCN(CCCC)CC(O)c1cc(-c2cc(C(O)CN(CCCC)CCCC)c3ccccc3n2)nc2ccccc12 (centres undefined)
Reply | -6.85

Ask | # return recorded growth inhibition for input OC1CC2CCCCC2CC1C1CCCCC1 (centres undefined)
Reply | -25.6

Ask | Report growth inhibition, nothing else, for this compound: CC(=O)NNc1nc(C)c(C(/C=C/c2ccc(Cl)cc2)=N/NC(=S)NN)s1
Reply | 15.8

Ask | Tell me measured growth inhibition for CC1CCCCC[N+]1(C)CCO (centres undefined) please.
Reply | -30.7
